Each record here notes measured neutralization IC50.
molecular target: HIV-1 Env of Q461.e2 (HIV-1); experiment: cell-based or functional assay
ENDPOINT_LABEL: neutralization IC50

1) CAP256-VRC26.09 (antibody, V domains shown) VH: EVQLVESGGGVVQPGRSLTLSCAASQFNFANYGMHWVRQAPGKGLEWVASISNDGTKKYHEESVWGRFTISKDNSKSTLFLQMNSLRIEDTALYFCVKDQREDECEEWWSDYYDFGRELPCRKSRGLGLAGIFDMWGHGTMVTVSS VL: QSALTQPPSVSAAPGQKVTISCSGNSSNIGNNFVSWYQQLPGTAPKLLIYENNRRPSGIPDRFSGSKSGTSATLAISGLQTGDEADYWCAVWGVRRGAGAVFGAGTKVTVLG; 0.705 µg/mL
2) CAP256-VRC26.12 (antibody, V domains shown) VH: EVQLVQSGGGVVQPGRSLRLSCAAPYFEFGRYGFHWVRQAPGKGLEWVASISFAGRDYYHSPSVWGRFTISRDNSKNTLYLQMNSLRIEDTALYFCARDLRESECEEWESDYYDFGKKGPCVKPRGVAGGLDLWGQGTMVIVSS VL: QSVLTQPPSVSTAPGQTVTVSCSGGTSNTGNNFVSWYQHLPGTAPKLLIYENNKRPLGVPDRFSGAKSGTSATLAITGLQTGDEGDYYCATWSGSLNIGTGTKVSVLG; > 50 µg/mL
3) CAP256-VRC26.04 (antibody, V domains shown) VH: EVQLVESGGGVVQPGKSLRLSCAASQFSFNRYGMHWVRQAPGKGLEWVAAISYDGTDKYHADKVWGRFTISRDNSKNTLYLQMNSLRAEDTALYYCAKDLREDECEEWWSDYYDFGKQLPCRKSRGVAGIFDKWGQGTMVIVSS VL: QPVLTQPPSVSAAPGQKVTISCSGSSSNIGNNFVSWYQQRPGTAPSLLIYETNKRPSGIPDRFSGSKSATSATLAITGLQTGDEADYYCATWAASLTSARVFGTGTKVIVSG; > 50 µg/mL
